Recorded values, source ChEMBL document CHEMBL3734701.

What MIC was measured for each of the following?
- Test system: Staphylococcus aureus
- Assay: Antibacterial activity against clinically isolated penicillin-resistant Staphylococcus aureus by broth microdilution method
- Type: functional
Value expressed in mg/L; do not type the unit.

Problem: I would be grateful if you could share the reported MIC for CC[C@@H]1OC(=O)[C@H](C)[C@@H](O[C@H]2C[C@@](C)(OC)[C@@H](OC(=O)NNC(=O)/C=C/c3ccccc3OC)[C@H](C)O2)[C@@H](C)[C@@H](O[C@@H]2O[C@H](C)C[C@H](N(C)C)[C@H]2O)[C@](C)(O)C[C@@H](C)CN(C)[C@H](C)[C@@H](OC(=O)NCc2ccccc2)[C@]1(C)O .
Solution: 2

Problem: I would be grateful if you could share the reported MIC for CC[C@H]1OC(=O)[C@@H](C)[C@H](O[C@H]2C[C@@](C)(OC)[C@@H](OC(=O)NNC(=O)/C=C/c3ccc(C#N)cc3)[C@H](C)O2)[C@@H](C)[C@H](O[C@H]2O[C@@H](C)C[C@@H](N(C)C)[C@@H]2O)[C@@](C)(O)C[C@H](C)CN(C)[C@@H](C)[C@@H]2OC(=O)O[C@@]12C .
Solution: 8

Problem: I would be grateful if you could share the reported MIC for CC[C@H]1OC(=O)[C@@H](C)[C@H](O[C@H]2C[C@@](C)(OC)[C@@H](OC(=O)NNC(=O)/C=C/c3ccccc3F)[C@H](C)O2)[C@@H](C)[C@H](O[C@H]2O[C@@H](C)C[C@@H](N(C)C)[C@@H]2O)[C@@](C)(O)C[C@H](C)CN(C)[C@@H](C)[C@@H]2OC(=O)O[C@@]12C .
Solution: 16

Problem: I would be grateful if you could share the reported MIC for CC[C@H]1OC(=O)[C@H](C)[C@@H](O[C@H]2C[C@@](C)(OC)[C@@H](O)[C@H](C)O2)[C@H](C)[C@@H](O[C@@H]2O[C@H](C)C[C@H](N(C)C)[C@H]2O)[C@](C)(O)C[C@@H](C)C(=O)[C@H](C)[C@@H](O)[C@]1(C)O [ERYTHROMYCIN] .
Solution: 0.25

Problem: I would be grateful if you could share the reported MIC for CC[C@H]1OC(=O)[C@@H](C)[C@H](O[C@@H]2C[C@](C)(OC)[C@H](OC(=O)NNC(=O)/C=C/c3ccc(Cl)cc3)[C@@H](C)O2)[C@H](C)[C@H](O[C@H]2O[C@@H](C)C[C@@H](N(C)C)[C@@H]2O)[C@@](C)(O)C[C@H](C)CN(C)[C@@H](C)[C@H](OC(=O)NCc2ccc(OC)cc2)[C@@]1(C)O .
Solution: 2

Problem: I would be grateful if you could share the reported MIC for CC[C@@H]1OC(=O)[C@H](C)[C@@H](O[C@H]2C[C@@](C)(OC)[C@@H](OC(=O)NNC(=O)/C=C/c3cccs3)[C@H](C)O2)[C@@H](C)[C@@H](O[C@@H]2O[C@H](C)C[C@H](N(C)C)[C@H]2O)[C@](C)(O)C[C@@H](C)CN(C)[C@H](C)[C@@H](OC(=O)NCc2ccccc2)[C@]1(C)O .
Solution: 2

Problem: I would be grateful if you could share the reported MIC for CC[C@H]1OC(=O)[C@@H](C)[C@H](O[C@@H]2C[C@](C)(OC)[C@H](OC(=O)NNC(=O)/C=C/c3ccc([N+](=O)[O-])cc3)[C@@H](C)O2)[C@H](C)[C@H](O[C@H]2O[C@@H](C)C[C@@H](N(C)C)[C@@H]2O)[C@@](C)(O)C[C@H](C)CN(C)[C@@H](C)[C@H](OC(=O)NCc2ccccc2)[C@@]1(C)O .
Solution: 2

Problem: I would be grateful if you could share the reported MIC for CC[C@H]1OC(=O)[C@@H](C)[C@H](O[C@H]2C[C@@](C)(OC)[C@@H](OC(=O)NNC(=O)/C=C/c3ccccc3)[C@H](C)O2)[C@@H](C)[C@H](O[C@H]2O[C@@H](C)C[C@@H](N(C)C)[C@@H]2O)[C@@](C)(O)C[C@H](C)CN(C)[C@@H](C)[C@@H]2OC(=O)O[C@@]12C .
Solution: 8

Problem: I would be grateful if you could share the reported MIC for CC[C@H]1OC(=O)[C@@H](C)[C@H](O[C@H]2C[C@@](C)(OC)[C@@H](OC(=O)NNC(=O)/C=C/c3ccccc3OC)[C@H](C)O2)[C@@H](C)[C@H](O[C@H]2O[C@@H](C)C[C@@H](N(C)C)[C@@H]2O)[C@@](C)(O)C[C@H](C)CN(C)[C@@H](C)[C@@H]2OC(=O)O[C@@]12C .
Solution: 8

Problem: I would be grateful if you could share the reported MIC for CC[C@@H]1OC(=O)[C@H](C)[C@@H](O[C@H]2C[C@@](C)(OC)[C@@H](OC(=O)NNC(=O)/C=C/c3ccco3)[C@H](C)O2)[C@@H](C)[C@@H](O[C@@H]2O[C@H](C)C[C@H](N(C)C)[C@H]2O)[C@](C)(O)C[C@@H](C)CN(C)[C@H](C)[C@@H](OC(=O)NCc2ccccc2)[C@]1(C)O .
Solution: 1

Problem: I would be grateful if you could share the reported MIC for CC[C@@H]1OC(=O)[C@H](C)[C@@H](O[C@H]2C[C@@](C)(OC)[C@@H](OC(=O)NNC(=O)/C=C/c3cccs3)[C@H](C)O2)[C@@H](C)[C@@H](O[C@@H]2O[C@H](C)C[C@H](N(C)C)[C@H]2O)[C@](C)(O)C[C@@H](C)CN(C)[C@H](C)[C@@H](OC(=O)NCc2ccc(OC)cc2)[C@]1(C)O .
Solution: 2

Problem: I would be grateful if you could share the reported MIC for CC[C@H]1OC(=O)[C@@H](C)[C@H](O[C@@H]2C[C@](C)(OC)[C@H](OC(=O)NNC(=O)/C=C/c3ccc([N+](=O)[O-])cc3)[C@@H](C)O2)[C@H](C)[C@H](O[C@H]2O[C@@H](C)C[C@@H](N(C)C)[C@@H]2O)[C@@](C)(O)C[C@H](C)CN(C)[C@@H](C)[C@H](OC(=O)NCc2ccc(OC)cc2)[C@@]1(C)O .
Solution: 8

Problem: I would be grateful if you could share the reported MIC for CC[C@@H]1OC(=O)[C@H](C)[C@@H](O[C@H]2C[C@@](C)(OC)[C@@H](OC(=O)NNC(=O)/C=C/c3ccccc3)[C@H](C)O2)[C@@H](C)[C@@H](O[C@@H]2O[C@H](C)C[C@H](N(C)C)[C@H]2O)[C@](C)(O)C[C@@H](C)CN(C)[C@H](C)[C@@H](OC(=O)NCc2ccccc2)[C@]1(C)O .
Solution: 1
